Listed here: items and their measured IC50.
- Assay Method Text: Human primary T-cell proliferation stimulated by IL-2 (CellTiter-Glo)
- Type: cell-based
- Assay Context: primary human T-cells, IL-2 stimulated proliferation, 72 hours, ATP readout; read-out: Activity (IC50, inhibition of JAK3 activity)
Where a name gives a salt, the structure may show the parent alone.

compound=Cc1ccc(Nc2ncc(C)c(Nc3ccc4oc(=O)[nH]c4c3)n2)cc1F measured_endpoint=IC50 value_measured="< 500 nM"
compound="Cc1cnc(Nc2cc(C)c(F)c(C)c2)nc1Nc1ccc2oc(=O)n(COP(=O)(O)O)c2c1 [Compound A18, bis-sodium salt]" measured_endpoint=IC50 value_measured="500 to 5000 nM"

Lookup result for Cc1cnc(Nc2cc(C)c(C)c(C)c2)nc1Nc1ccc2oc(=O)[nH]c2c1 ; measured IC50: < 500 nM

Notebook: Cc1cnc(Nc2ccc(C(=O)NC3CCC3)cc2)nc1Nc1ccc2oc(=O)[nH]c2c1 , IC50 read as < 500 nM

Value of IC50 reported for the compound COc1cc(Nc2ncc(C)c(Nc3ccc4oc(=O)[nH]c4c3)n2)cc(C)c1F is < 500 nM

The compound listed as COc1cc(Nc2ncc(C)c(Nc3ccc4oc(=O)n(COP(=O)(O)O)c4c3)n2)cc(C(F)(F)F)c1 [Compound A15, bis-sodium salt] has a reported IC50 of 500 to 5000 nM

Data point: Cc1cnc(Nc2ccc(C(N)=O)cc2)nc1Nc1ccc2oc(=O)[nH]c2c1 ; IC50 = < 500 nM

Short answer for Cc1cnc(Nc2cc(C)c(F)c(C)c2)nc1Nc1ccc2oc(=O)[nH]c2c1 : IC50 was < 500 nM
